experimental.protocol: yeast display, Sf9 membrane polyspecificity reagent, FACS + sequencing; frameworks hold sequencing errors
property: polyreactivity (PSR sort gate)

QVQLVESGGGLVQAGGSLRLSCAASGGTCSKYAMGWYRQARGKEREFVAAITVSGGGTYYADSVKGRFTISRDNAKNTVYLQMNSLKTEDTAVYYCAADLAWTASDYWGQGTQVTLSS low polyreactivity
QVQLVESGGGLVQAGGSLRLSCAASGSTLDDYVMGWYRQAPGKERELVAAISSSGSGTYYADSVKGRFTISRDNAKNTVYLQMNSLKPEDTAVYYCAAAYSYSGYGYYTYDYWGQGTQVTVSS low polyreactivity
QVQLVESGGGLVQAGGSLRLSCAASGFTFGGNVMGWYRQAPGTERELVAAITYSGGSTYYADSVKGRFTISRDNAKNTVYLQMNSLIPEDTAVYYCNADATDSYPEKDEHDSWGQGTQVNVSS low polyreactivity
QVQLVESGGGLVQAGGSLRLSCAASGSIFQYNVMGRYRQEPGKEREFVADISSSGGSTYYADSVKGRFTISRDNAKNTVYLQMNSLKPEATAVYYCNARSKVAYDRHYYWGQGTQVTVSS low polyreactivity

----------
experimental.protocol: yeast display, Sf9 membrane polyspecificity reagent, FACS + sequencing; frameworks hold sequencing errors
property: polyreactivity (PSR sort gate)

QVQLVESGGGLVQAGGRLRISCAASGSIFGTYTMGWYRLAPGEERELVAAITSDGRTYYADSVKGRFTISRDNAKNTVYLQMNSLKPEDTAVYYCAADSSGYYWFNYWGQGTQVTVSS low polyreactivity
QVQLVESGGGLVQAGGSLRLSCAASGYTFNYYAMGWYRQAPGKERELVAAISASSDSTYYADSVKGRFTISRDNAKNTVYLQMNSLNPEDTAVYYCAAVSGRYRIYRYDYWGQGTQVTVSS low polyreactivity

----------
experimental.protocol: yeast display, Sf9 membrane polyspecificity reagent, FACS + sequencing; frameworks hold sequencing errors
property: polyreactivity (PSR sort gate)

QVQLVDSGGGLVQAGGSLRLSCAASGSIFYYNAMGWYRPAPGKERELVAAITSSGGSTYYADSVKGRFTISRDNAKNTVYLQMNSLKPEDTAVYYCYAGATALRYRPYSSAYDYWGQGTQVTVSS low polyreactivity
QVQLVESGGGLVQAGGSLRLSCAASGSTFSSYVMGWYRQAPGKERELVAGITRGGRTYYADSVKGRFTISRDNAKNTVYLQMNSLKPEDTAVYYCNARDGVTTEFDYWGQGTQVTVSS low polyreactivity

----------
experimental.protocol: yeast display, Sf9 membrane polyspecificity reagent, FACS + sequencing; frameworks hold sequencing errors
property: polyreactivity (PSR sort gate)

Check out these entries, answers already filled in.
QVQLVESGGGLVQAGGSLRLSCAASGSTFQYNAMVGYIQAPGKERELVAAISRGSSTKYADSVKGRFTISRDNAKNTVYLQMNSLKPEDTAVYYCAVDTRPSHRTRAYYYWGQGTQVTVSS high polyreactivity
QVQLVESGGGLVQAGGSLRLSCAASGRIFDGNTMGWYIPAPGKERELVAAISGGGSTDYADSVKGRFTISRDNAKNTVYLQMNSLKPEDTAVYYCAATTGPVPLKGDYWGQGTQVTVSS low polyreactivity
QVQLVESGGGLVQAGGSLRLSCADSGSTFNSYAMGWYRQAPGKERELVAAITHRGSTYYADSVKGRFTISLDNAKNTVYLQMNSLKPEDTAVDYCNVRRIGNGRRVDYWGQGTQVTVSS high polyreactivity
QVQLVESGGGLVQAGGSLRLSCAASGSTFYGYGMGWYSQAPGKERELVAAITKSVGSTYYADSVNGRFTISRDNAKNTVYLQMNSLKPEDTAVYYCARSTRYRRGPSQYAGTYDYWGQGTQVTVSS low polyreactivity

Query string: Name the recorded polyreactivity (PSR sort gate) of the sequence listed here: `QVQLVESGGGLVQAGGSLRLSCAASGRISAYYAMGWYRQAPGKERELVAVITSGGRTNYADSVKGRFTISRDNAKNTVYLQMNSLKPEDTAVYYCAARSRVSPRYDYWGQGTQVTVSS`
Result string: high polyreactivity

Query string: Name the recorded polyreactivity (PSR sort gate) of the sequence listed here: `QVQLVESGGGLVQAGGSLRLSCAASGSTFSKNTMGWYRQAPGKERELVAAITGTGDSTYYADSVKGRFTISRDNAKYPVYLQMNSLKPEDTAVYYCAADAYSLCYESWGQGTKVTVSS`
Result string: low polyreactivity

Query string: Name the recorded polyreactivity (PSR sort gate) of the sequence listed here: `QVQLVESGGGLVQAGGSLRLSCAASGFTFDYYAMGWYRQAPGKERELVAAITRSGTRTYYADSVKGRFTISRDNAKNTVYLQMNSLKPEDTAVYYCNVEYPKRANLSDYWGQGTQVTVSS`
Result string: high polyreactivity

Query string: Name the recorded polyreactivity (PSR sort gate) of the sequence listed here: `QVQLVESGGGLVQAGGSLRLSCAASGRTFAPYAMAWYRQAPGKERELVAVISSSGGRTYYADSVKGRFTISRDNAKNTVYLQMNSLKPEDTAVYYCAADVYGYRFFKTGRYDYWGQGSQVTVSS`
Result string: high polyreactivity

Query string: Name the recorded polyreactivity (PSR sort gate) of the sequence listed here: `QVQLVESGGGLVQAGGSLRLSCAASGSIFAYYAMGGYRQAPGKERELVAAITSGDSTYYADSVKGRFTISRDNAKNTVYLQMNSLKPEDTAVYYCAADHIWFYFYLYDYWGQGTQVTVSS`
Result string: low polyreactivity
